The values you see were collected from patent EP4772535A1.

- ASSAY_SYSTEM: T1, human/cynomolgus monkey ROR1 protein (Acro Biosystems, Cat. No.: RO1-H522y) (human/cynomolgus monkey, UniProt Q01973 30-403)
- T1 construct: Bought SPR analyte
- T1 sequence (Q01973 30-403 limits assumed): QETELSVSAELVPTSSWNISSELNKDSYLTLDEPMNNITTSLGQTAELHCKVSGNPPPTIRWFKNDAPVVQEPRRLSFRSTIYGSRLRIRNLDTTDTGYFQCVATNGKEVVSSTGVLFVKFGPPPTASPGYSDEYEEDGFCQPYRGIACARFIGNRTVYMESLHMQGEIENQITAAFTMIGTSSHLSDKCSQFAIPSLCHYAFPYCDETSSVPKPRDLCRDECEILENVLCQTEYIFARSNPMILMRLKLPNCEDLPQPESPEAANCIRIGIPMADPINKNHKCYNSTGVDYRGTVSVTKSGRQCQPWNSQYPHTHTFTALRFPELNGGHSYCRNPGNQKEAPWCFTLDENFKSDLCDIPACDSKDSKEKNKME
- METHOD: SPR (Biacore), antibody captured on anti-hIgG CM5 chip, ROR1 protein as analyte, method of Example 5
VALUE_KIND: Kd (pM)

INSERT INTO results (binder, measure_unit, measurement) VALUES
  ('hz137G11D10-3.2 (antibody, human IgG1, kappa, V domains shown, Humanized, human IgG1/kappa) VH: QVQLQESGPGLVKPSQTLSLTCTVSGYSITSDYAWNWIRQHPGKGLEWIGYITYSASTSYNPSLKSRVTISRDTSKNQFFLKLSSVTAADTAVYYCARGAGTYYFDYWGQGTLVTVSS VL: DIQMTQSPSSLSASVGDRVTITCITSTDIDEDMNWYQQKPGKAPKLLISEDNSLRPGVPSRFSSSGYGTDFTLTISSLQPEDFATYYCLQTNNLPLTFGQGTKVEIKR', 'pM', 160);
